Source of measurements: patent US20120245137A1

target: Human Cav 2.2 channels (Homo sapiens, UniProt Q00975); assay: Fluorescent assay for CaV2.2 channels using potassium depolarization (VIPR/FLIPR); format: cell-based; settings: FLIPR data; closed state; read-out: CAv2.2 IC50 Closed
Sequence (Q00975 whole entry): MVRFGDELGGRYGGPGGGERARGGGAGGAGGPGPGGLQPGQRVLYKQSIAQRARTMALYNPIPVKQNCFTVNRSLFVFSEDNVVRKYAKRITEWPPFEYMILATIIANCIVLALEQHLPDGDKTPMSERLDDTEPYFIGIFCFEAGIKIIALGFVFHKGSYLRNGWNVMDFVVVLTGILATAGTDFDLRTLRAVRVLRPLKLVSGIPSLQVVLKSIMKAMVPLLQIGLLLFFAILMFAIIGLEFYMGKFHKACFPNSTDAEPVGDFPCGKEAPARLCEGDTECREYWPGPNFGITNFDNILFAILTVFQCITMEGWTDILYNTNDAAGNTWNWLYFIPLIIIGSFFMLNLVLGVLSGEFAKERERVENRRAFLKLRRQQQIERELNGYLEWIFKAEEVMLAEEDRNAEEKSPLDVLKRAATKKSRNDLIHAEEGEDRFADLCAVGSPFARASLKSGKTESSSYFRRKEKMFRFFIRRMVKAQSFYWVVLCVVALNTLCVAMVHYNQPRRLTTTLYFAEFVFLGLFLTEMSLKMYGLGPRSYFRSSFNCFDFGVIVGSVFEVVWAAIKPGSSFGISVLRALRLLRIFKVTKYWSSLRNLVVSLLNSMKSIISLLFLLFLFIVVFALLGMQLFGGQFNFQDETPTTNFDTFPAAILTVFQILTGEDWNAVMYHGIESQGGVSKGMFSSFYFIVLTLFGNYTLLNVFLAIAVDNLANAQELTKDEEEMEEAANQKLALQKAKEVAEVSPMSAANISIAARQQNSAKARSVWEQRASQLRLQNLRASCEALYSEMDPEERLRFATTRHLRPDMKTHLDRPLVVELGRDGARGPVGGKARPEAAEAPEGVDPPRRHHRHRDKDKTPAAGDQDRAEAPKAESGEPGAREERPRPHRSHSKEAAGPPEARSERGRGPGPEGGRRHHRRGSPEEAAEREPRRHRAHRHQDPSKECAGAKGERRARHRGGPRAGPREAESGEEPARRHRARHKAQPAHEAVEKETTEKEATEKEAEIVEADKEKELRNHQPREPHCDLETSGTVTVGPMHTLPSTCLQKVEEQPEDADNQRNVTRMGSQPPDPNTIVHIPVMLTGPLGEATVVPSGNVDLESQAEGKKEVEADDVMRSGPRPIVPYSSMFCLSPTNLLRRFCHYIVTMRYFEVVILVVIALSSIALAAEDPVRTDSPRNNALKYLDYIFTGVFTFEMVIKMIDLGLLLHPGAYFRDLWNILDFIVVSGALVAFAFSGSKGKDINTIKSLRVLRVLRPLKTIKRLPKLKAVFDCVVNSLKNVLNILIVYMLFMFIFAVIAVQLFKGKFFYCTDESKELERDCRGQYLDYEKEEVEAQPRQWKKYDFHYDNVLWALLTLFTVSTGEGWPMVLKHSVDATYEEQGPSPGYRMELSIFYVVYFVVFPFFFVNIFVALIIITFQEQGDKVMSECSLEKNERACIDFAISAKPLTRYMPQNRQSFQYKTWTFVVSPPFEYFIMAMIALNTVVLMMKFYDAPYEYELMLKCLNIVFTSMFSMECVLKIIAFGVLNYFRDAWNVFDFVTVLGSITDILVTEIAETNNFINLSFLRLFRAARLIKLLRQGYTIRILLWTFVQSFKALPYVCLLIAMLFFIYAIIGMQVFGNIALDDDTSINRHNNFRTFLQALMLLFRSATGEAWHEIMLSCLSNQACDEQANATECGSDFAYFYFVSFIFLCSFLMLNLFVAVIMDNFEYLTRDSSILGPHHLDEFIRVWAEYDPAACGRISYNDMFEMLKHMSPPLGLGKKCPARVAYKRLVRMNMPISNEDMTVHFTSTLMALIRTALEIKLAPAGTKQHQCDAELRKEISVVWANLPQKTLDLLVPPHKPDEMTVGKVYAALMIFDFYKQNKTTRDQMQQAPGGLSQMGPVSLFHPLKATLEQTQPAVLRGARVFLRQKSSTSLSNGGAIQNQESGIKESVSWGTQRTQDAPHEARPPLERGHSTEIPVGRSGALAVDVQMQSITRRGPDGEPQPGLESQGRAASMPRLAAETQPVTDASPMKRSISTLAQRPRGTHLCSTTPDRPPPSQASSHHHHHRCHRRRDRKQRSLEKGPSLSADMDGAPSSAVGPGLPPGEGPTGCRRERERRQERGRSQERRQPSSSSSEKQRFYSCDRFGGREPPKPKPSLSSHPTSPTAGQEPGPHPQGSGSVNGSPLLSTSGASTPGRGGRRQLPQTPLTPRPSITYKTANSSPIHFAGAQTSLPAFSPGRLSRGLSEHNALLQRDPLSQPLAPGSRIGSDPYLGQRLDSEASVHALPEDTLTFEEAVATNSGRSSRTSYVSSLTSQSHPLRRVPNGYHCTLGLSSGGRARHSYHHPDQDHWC
Sequence (P54289 25-1103 partner): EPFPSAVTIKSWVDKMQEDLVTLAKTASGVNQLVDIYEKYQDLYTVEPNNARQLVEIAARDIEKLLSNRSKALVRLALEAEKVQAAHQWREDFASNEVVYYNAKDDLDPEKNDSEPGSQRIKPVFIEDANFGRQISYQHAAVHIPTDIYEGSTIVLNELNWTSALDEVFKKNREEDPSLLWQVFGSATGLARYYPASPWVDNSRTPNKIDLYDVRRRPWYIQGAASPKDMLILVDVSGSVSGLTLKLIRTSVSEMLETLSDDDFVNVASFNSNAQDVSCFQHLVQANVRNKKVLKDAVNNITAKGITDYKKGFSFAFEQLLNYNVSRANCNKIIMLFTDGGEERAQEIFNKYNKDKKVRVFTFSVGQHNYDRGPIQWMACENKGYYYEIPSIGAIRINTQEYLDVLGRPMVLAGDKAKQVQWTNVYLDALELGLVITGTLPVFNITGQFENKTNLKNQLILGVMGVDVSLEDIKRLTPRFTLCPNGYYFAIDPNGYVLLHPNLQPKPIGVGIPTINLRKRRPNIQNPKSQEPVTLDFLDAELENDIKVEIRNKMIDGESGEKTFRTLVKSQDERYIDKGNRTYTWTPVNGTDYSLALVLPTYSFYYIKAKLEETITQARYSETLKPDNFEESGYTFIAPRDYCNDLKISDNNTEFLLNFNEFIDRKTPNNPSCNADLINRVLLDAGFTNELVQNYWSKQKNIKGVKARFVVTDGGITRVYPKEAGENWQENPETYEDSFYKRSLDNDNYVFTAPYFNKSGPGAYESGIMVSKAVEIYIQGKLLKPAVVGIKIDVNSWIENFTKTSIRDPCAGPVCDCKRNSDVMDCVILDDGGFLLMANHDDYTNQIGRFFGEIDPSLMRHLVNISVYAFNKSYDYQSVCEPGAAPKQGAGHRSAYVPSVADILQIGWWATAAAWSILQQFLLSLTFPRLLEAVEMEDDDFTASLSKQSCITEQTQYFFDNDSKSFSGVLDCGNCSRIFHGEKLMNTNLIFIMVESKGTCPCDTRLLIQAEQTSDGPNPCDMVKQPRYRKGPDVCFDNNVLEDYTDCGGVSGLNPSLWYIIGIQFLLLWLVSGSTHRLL
Sequence (P54284 whole entry partner): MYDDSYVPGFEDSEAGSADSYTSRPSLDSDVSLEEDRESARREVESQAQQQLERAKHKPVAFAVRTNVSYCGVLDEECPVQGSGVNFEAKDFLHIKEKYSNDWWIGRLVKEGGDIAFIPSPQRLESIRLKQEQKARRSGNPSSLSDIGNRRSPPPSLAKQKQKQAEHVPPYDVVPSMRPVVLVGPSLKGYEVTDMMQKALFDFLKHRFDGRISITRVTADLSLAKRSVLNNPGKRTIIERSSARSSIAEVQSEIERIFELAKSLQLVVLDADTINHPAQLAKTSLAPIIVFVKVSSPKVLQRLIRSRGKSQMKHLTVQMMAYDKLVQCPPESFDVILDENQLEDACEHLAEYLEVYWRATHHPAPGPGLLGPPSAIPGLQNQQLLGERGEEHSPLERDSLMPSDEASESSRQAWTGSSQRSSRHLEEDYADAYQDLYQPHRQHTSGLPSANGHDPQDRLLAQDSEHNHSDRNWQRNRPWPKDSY
TEST READOUT: IC50 (µM)
Report only the number, with the unit µM understood.

Take a look at these entries with their results.
CC(C)([C@H]1C[C@@H](C(=O)Nc2ccc(C(F)(F)F)nc2)C1)S(=O)(=O)c1cccc(C(F)(F)F)c1 [Compound 759] ... 3.67
CNC1(CC(=O)N[C@H]2C[C@@H](C(C)(C)S(=O)(=O)c3cccc(OC(F)(F)F)c3)C2)CCCCC1 [Compound 661] ... 8.03
CC(C)([C@H]1C[C@@H](Nc2ccnc(C(F)(F)F)n2)C1)S(=O)(=O)c1cccc(OC(F)(F)F)c1 [Compound 646] ... 4.23

Kindly review the next compound as well.
Q) What reported IC50 corresponds to CNC1(CC(=O)N[C@H]2C[C@H](C(C)(C)S(=O)(=O)c3cccc(OC(F)(F)F)c3)C2)CCCCC1 [Compound 662] on Human Cav 2.2 channels (Homo sapiens, UniProt Q00975)?
A) 5.65

----------
target: T-type calcium channel (Homo sapiens, UniProt O95180); assay: T-type channel blocking, FLIPR data (Table 6); assay type: cell-based; conditions: CAv3.2, closed state, read-out: CAv3.2 IC50 Closed
Examples of compounds with documented pIC50 follow.
pIC50 here is simply -log10 of the concentration when that concentration is written in mol/L.

Q) May I ask what pIC50 has been recorded for "CC(C)([C@H]1C[C@@H](Nc2ccnc(C(F)(F)F)n2)C1)S(=O)(=O)c1cc(F)cc(C(F)(F)F)c1" ?
A) 5.29

Q) May I ask what pIC50 has been recorded for "CC(C)(C[C@H]1C[C@H](NC(=O)c2ccc(C(F)(F)F)nc2)C1)S(=O)(=O)c1cccc(C(F)(F)F)c1" ?
A) 5.21

Q) May I ask what pIC50 has been recorded for "CC(C)([C@H]1C[C@H](C(=O)NCc2ccc(Oc3ccccc3)cc2)C1)S(=O)(=O)c1cccc(C(F)(F)F)c1" ?
A) 5.54

Q) May I ask what pIC50 has been recorded for CC(C)(C1CC(CNC(=O)c2cc(C(F)(F)F)n[nH]2)C1)S(=O)(=O)c1cccc(C(F)(F)F)c1 (stereo not shown) [Compound 682] ?
A) 5.64

----------
Examples of compounds with documented IC50 follow.
molecular target: Human Cav 2.2 channels (Homo sapiens, UniProt Q00975); assay: Fluorescent assay for CaV2.2 channels using potassium depolarization (VIPR/FLIPR); format: cell-based; conditions: FLIPR data; closed state; read-out: CAv2.2 IC50 Closed
Report only the number, with the unit nM understood.

CC(C)([C@H]1C[C@@H](NC(=O)c2ccc(C(F)(F)F)cc2)C1)S(=O)(=O)c1cccc(C(F)(F)F)c1 [Compound 581] ... 2430
Cn1nc(C(F)(F)F)cc1C(=O)N[C@H]1C[C@@H](CC(C)(C)S(=O)(=O)c2cccc(C(F)(F)F)c2)C1 [Compound 738] ... 1270

Kindly review the next compound as well.
Q) What reported IC50 corresponds to CC(C)([C@H]1C[C@@H](NC(=O)c2cc(C(F)(F)F)n[nH]2)C1)S(=O)(=O)c1cc(F)cc(C(F)(F)F)c1 [Compound 587] on Human Cav 2.2 channels (Homo sapiens, UniProt Q00975)?
A) 5550
